# Procedure summary: self-splicing fitness, log relative to wild type (ln ratio); higher = more splicing; Tetrahymena group I intron in knt gene, E. coli kanamycin selection, DiMSum; sequences stand for … in CUCUCU…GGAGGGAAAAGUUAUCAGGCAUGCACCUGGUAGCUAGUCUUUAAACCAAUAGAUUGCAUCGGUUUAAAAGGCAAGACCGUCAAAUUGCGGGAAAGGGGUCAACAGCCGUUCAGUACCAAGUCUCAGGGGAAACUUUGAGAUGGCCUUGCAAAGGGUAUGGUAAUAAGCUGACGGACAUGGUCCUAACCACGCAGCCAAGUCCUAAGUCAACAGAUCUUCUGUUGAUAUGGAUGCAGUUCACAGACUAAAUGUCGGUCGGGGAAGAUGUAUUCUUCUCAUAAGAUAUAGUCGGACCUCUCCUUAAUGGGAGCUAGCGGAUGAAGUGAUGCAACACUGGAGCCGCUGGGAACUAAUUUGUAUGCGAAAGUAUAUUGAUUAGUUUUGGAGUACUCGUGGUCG;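 further: selection with 25 µg/mL kanamycin versus none on LB agar overnight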
# Particulars: 30 °C
Metric: self-splicing fitness (ln)
Number only, no unit.

Example entries and their recorded answers appear below.
GCCUAGCAAUAUUACGGAAG    -2.96
ACAGAGCAAUAUUACGGUUG    -3.68

The sequence listed as `AUAUAGCAAUAUUACGAGGU` shows self-splicing fitness (ln) equal to -3.66

These entries and their values trace back to the supplement of paper PMC7877785.
